These data points were gathered from patent US7550495B2.

Lab note: Ki readings collected with Human CB1 receptor (Homo sapiens, UniProt P21554) for the following compounds.
Sequence (P21554 whole entry): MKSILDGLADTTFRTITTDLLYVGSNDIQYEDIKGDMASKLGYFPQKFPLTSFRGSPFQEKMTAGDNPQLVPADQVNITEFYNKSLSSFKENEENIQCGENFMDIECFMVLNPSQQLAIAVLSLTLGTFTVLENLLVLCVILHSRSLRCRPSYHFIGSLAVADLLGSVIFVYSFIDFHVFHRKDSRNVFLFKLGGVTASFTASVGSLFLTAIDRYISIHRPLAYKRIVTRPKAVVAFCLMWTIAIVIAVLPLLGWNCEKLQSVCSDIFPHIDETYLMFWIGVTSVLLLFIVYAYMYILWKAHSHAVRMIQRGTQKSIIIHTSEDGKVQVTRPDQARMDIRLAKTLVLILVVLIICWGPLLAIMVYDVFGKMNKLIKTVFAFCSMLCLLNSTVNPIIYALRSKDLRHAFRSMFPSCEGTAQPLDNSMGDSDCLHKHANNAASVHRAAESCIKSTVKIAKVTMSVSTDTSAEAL
A number alone suffices; assume nM.

Here CCS(=O)(=O)Nc1ccc2c(c1)nc(C(C)(C)C)n2CC1CCC(F)CC1 (single isomer, unassigned) [Isomer B] was tested on Human CB1 receptor (Homo sapiens, UniProt P21554), and its Ki came to 14.8

Please look at the following compound next.
Here CCS(=O)(=O)Nc1ccc2c(c1)nc(C(C)(C)C)n2CC1CCC(F)CC1 (single isomer, unassigned) [Isomer A] was tested on Human CB1 receptor (Homo sapiens, UniProt P21554), and its Ki came to 148

----------
Test: Metabolic stability assay in human liver microsomes
Assay type: in vitro ADME
Conditions: pH 7.4, read-out: hClint
property_label: microsomal CLint at 1.6 µM

Data point: CCS(=O)(=O)Nc1ccc2c(c1)nc(C(C)(C)C)n2CC1CCC(F)CC1 (single isomer, unassigned) [Isomer B] ; microsomal CLint at 1.6 µM = 7.7 µL/min/mg
